- System: Rattus norvegicus
- protocol text: Compound was tested for hypotensive activity by measuring the average change in mean arterial blood pressure in mmHg after 24 hr at 50 mg/Kg oral dosing of a conscious rat
- Type: functional, Artery
Tag: yes (1) if measured Activity is not below -20 mmHg, no (0) if it is.

# count of solved cases: 4
[[record]]
structure = "COc1ccc(N2CCN(C(=O)c3ccc(Nc4ccnc5cc(C(F)(F)F)ccc45)cc3)CC2)cc1"
assigned_category = "yes (1)"

[[record]]
structure = "O=C(c1ccc(Nc2ccnc3cc(C(F)(F)F)ccc23)cc1)N1CCN(c2ccccc2)CC1"
assigned_category = "yes (1)"

[[record]]
structure = "COc1ccc(N2CCN(Cc3ccc(Nc4ccnc5cc(C(F)(F)F)ccc45)cc3)CC2)cc1"
assigned_category = "yes (1)"

[[record]]
structure = "COc1ccccc1N1CCN(C(=O)c2ccc(Nc3ccnc4cc(C(F)(F)F)ccc34)cc2)CC1"
assigned_category = "no (0)"


For the next question, use this compound.
Check this compound for Activity at or above -20 mmHg: O=C(c1ccc(Nc2ccnc3cc(C(F)(F)F)ccc23)cc1)N1CCC(c2ccccc2)CC1
yes (1)

Where do the numbers come from? From ChEMBL document CHEMBL1123201.
